biological target: Luciferin 4-monooxygenase (Photinus pyralis); assay: FLuc inhibitory activity for the follow-up compounds in a biochemical assay with an in-house formulation of detection reagent; settings: purified FLuc, luminescence; series mostly up to 25.6 µM
Inconclusive results are not listed. Active and inactive are the calls of the source. Calls follow the shape of the dose curve; as a rule, active = well fitted inhibition curve with a large enough effect; inconclusive = small, poorly fitted or top-dose-only effect; inactive = no such curve, though single readings can be large or run the other way.
A correct response names exactly one class from active, inactive

Example results:
* CC(C)(C)C(=O)Nc1ccc(-c2nc3ccccc3s2)cc1 | active
* O=C(Nc1ccccc1C(=O)O)c1cccc(C(=O)Nc2ccccc2C(=O)O)c1 | inactive
* O=C(Nc1ccccc1C(=O)O)c1cccc(NC(=O)c2ccc(Br)o2)c1 | inactive
* Cc1c(C)c2ccc(OCC(=O)Nc3ccccn3)c(C)c2oc1=O | active
* COc1ccc(CC(=O)Nc2ccc(-c3nc4ccccc4s3)c(C)c2)cc1 | active
* O=C(O)c1ccc(NC(=O)c2ccccc2NC(=O)c2cccc(Br)c2)cc1 | inactive

IN: How was Cc1ccc(C(=O)Nc2ccc(C(=O)O)cc2)cc1S(=O)(=O)NCc1ccccc1 classified in this test?
OUT: inactive

IN: For this molecule, state the assay outcome: COc1ccc2nc(NC(=O)CCc3ccc(OC)c(OC)c3)sc2c1
OUT: inactive

IN: What outcome does the record of this test show for CCc1noc(C)c1C(=O)Nc1nc2ccc(OC)cc2s1 ?
OUT: inactive

IN: Assay outcome for Cc1c(NS(C)(=O)=O)cccc1-c1nc2ccccc2s1 : what was it?
OUT: inactive

IN: Hi, do you know how O=C(Nc1ccccc1C(=O)Nc1ccccc1C(=O)O)c1ccccc1 came out in this test?
OUT: inactive
